testMethodNotes: LNP hydrodynamic diameter and PDI by DLS (Example 16 LNPs, Stunner)
Format: physicochemical
assayConditions: Example 16 LNPs: 47.5% Ionizable Lipid: 40% cholesterol: 2.5% PEG-2000 DMG: 10% DPSC, N/P 4-8
Task for the reader: assign each of the following compounds its reported Mean Diameter.

Example entries begin here.
INSERT INTO measurements (compound, readoutkind, val) VALUES
  ('CC/C=C\CCCCOC(CCC(=O)OCCCCCCN(CCCO)CCN(CCCCCCOC(=O)C(CCCC)CCCCCC)CCCCCCOC(=O)C(CCCC)CCCCCC)OCCCC/C=C\CC (stereo not shown) [Example 7-20]', 'Mean Diameter', '97.0 nm'),
  ('CC/C=C\CCCCOC(CCC(=O)OCCCCCCCN(CCCCCCCOC(=O)CCC(OCCCC/C=C\CC)OCCCC/C=C\CC)CCN(CCO)CCCCCCCCCOC(=O)C(CCCC)CCCCCC)OCCCC/C=C\CC (stereo not shown) [Example 7-26]', 'Mean Diameter', '82.5 nm');

I would be grateful if you could provide Mean Diameter for each of the following entries.
1. CC/C=C\CCCCOC(CCC(=O)OCCCCCCN(CCO)CCCN(CCCCCCOC(=O)C(CCCC)CCCCCC)CCCCCCOC(=O)C(CCCC)CCCCCC)OCCCC/C=C\CC (stereo not shown) [Example 7-7]
2. CC/C=C\CCCCOC(CCC(=O)OCCCCCCN(CCCO)CCN(CCCCCCOC(=O)CCC(OCCCC/C=C\CC)OCCCC/C=C\CC)CCCCCCOC(=O)CCC(OCCCC/C=C\CC)OCCCC/C=C\CC)OCCCC/C=C\CC [Example 7-16]
3. CC/C=C\CCCCOC(CCC(=O)OCCCCCCCN(CCCO)CCCN(CCCCCCCOC(=O)CCC(OCCCC/C=C\CC)OCCCC/C=C\CC)CCCCCCCOC(=O)CCC(OCCCC/C=C\CC)OCCCC/C=C\CC)OCCCC/C=C\CC [Example 7-29]
4. CC/C=C\CCCCOC(CCC(=O)OCCCCCCCN(CCCCCCCOC(=O)CCC(OCCCC/C=C\CC)OCCCC/C=C\CC)CCCN(CCO)CCCCCCCCCOC(=O)C(CCCC)CCCCCC)OCCCC/C=C\CC (stereo not shown) [Example 7-24]
5. CC/C=C\CCCCOC(CCC(=O)OCCCCCCN(CCCO)CCN(CCCCCCCCCOC(=O)C(CCCC)CCCCCC)CCCCCCCCCOC(=O)C(CCCC)CCCCCC)OCCCC/C=C\CC (stereo not shown) [Example 7-21]

["83.4 nm", "91.3 nm", "95.4 nm", "92.7 nm", "87.1 nm"]

Batch request: Mean Diameter for each of the following compounds.
1. CC/C=C\CCCCOC(CCC(=O)OCCCCCCCN(CCCCCCCOC(=O)CCC(OCCCC/C=C\CC)OCCCC/C=C\CC)CCN(CCO)CCCCCCCC(=O)OCCCCCCCCC)OCCCC/C=C\CC [Example 7-13]
2. CC/C=C\CCCCOC(CCC(=O)OCCCCCCCN(CCO)CCCN(CCCCCCCCCOC(=O)C(CCCC)CCCCCC)CCCCCCCCCOC(=O)C(CCCC)CCCCCC)OCCCC/C=C\CC (stereo not shown) [Example 7-25]
3. CC/C=C\CCCCOC(CCC(=O)OCCCCCCCN(CCCCCCCOC(=O)CCC(OCCCC/C=C\CC)OCCCC/C=C\CC)CCCN(CCO)CCCCCCCC(=O)OCCCCCCCCC)OCCCC/C=C\CC [Example 7-4]

1: 86.2 nm; 2: 92.4 nm; 3: 95.1 nm
